Target: Human ATX protein (Homo sapiens, UniProt Q13822)
Construct: made in house
Test: ATX biochemical FRET assay with FS-3 substrate
Settings: IC50, FRET substrate FS-3 2 μM, ATX 1.0 μg/mL, 30 minutes pre-incubation, 2 hours at room temperature
measured-parameter: IC50

These recorded examples may help you get a feel for the data.
# molecule, measured-parameter, assay-result
data = [
    ("C[C@H]1CC[C@@H](Oc2ccc3ccc(CN4C5CCC4CC(C(=O)O)C5)cc3c2Cl)CC1 (some centres unmarked) [Example 83]", "IC50", "≤ 250 nM"),
    ("CCC(c1ccc2ccc(O[C@H]3CC[C@@H](C(F)(F)F)CC3)c(C#N)c2c1)N1C2CCC1CC(C(=O)O)C2 (some centres unmarked) [Example 40]", "IC50", "≤ 500 nM"),
    ("CC[C@H]1CC[C@@H](Oc2ccc3ccc(C(C)N4C5CCCC4CC(C(=O)O)C5)cc3c2Cl)CC1 (some centres unmarked) [Example 66]", "IC50", "≤ 250 nM"),
    ("N#Cc1c(O[C@H]2CC[C@@H](C(F)(F)F)CC2)ccc2ccc(CN3C4CCCC3CC(C(=O)O)C4)cc12 (some centres unmarked) [Example 35]", "IC50", "≤ 250 nM"),
    ("CC(c1ccc2ccc(O[C@H]3CC[C@@H](C)CC3)c(Cl)c2c1)N1C2CCCC1CC(C(=O)O)C2 (some centres unmarked) [Example 91]", "IC50", "≤ 250 nM"),
    ("[2H]C([2H])([2H])[C@@H](c1ccc2ccc(O[C@H]3CC[C@@H](C(F)(F)F)CC3)c(C(F)(F)F)c2c1)N1C2CCC1CC(C(=O)O)C2 (some centres unmarked) [Example 46]", "IC50", "≤ 100 nM"),
    ("C[C@H](c1ccc2ccc(O[C@H]3CC[C@@H](C(F)(F)F)CC3)c(C(F)(F)F)c2c1)N1C2CCCC1CC(C(=O)O)C2 (some centres unmarked) [Example 137b]", "IC50", "≤ 100 nM"),
]

Now consider the entry below.
Considering C[C@H]1CC[C@@H](Oc2ccc3cc(F)c(CN4C5CCCC4CC(C(=O)O)C5)cc3c2C(F)(F)F)CC1 (some centres unmarked) [Example 138] , its IC50 with Human ATX protein (Homo sapiens, UniProt Q13822) was recorded as ≤ 250 nM
